Experiment: Biochemical counterscreen for C difficile toxins, absence of UDPG, inhibitor dose response (AID 720650)
Settings: series mostly up to 19.5 µM
Activity calls are given as the source filed them. The rule behind the calls is not given here.
API: response.call in Y for active, N for inactive

// query Status in this test for COc1ccc2[nH]c3c(=O)n(CCCCC(=O)NCCN4CCCC4)c(=S)[nH]c3c2c1 ?
// result Y

// query Status in this test for Cc1ccnc(N2C(=O)c3ccccc3C2=O)c1 ?
// result N

// query Status in this test for O=c1c(OC2OC(CO)C(O)C(O)C2O)c(-c2ccc(O)c(O)c2)oc2cc(O)cc(O)c12 (stereo unspecified) ?
// result N

// query Status in this test for C[N+]1(CCCCSc2ccc(O)cc2)CCCCC1 ?
// result N

// query Status in this test for O=C(Cc1coc2cc(O)ccc12)NNC(=O)c1cccs1 ?
// result N

// query Status in this test for O=C(Nc1ccc(O)cc1)C1CCCN1S(=O)(=O)c1ccc(F)cc1 (stereo unspecified) ?
// result Y

// query Status in this test for CCC(C)NC(=O)CSc1nc2cc(S(=O)(=O)N3CCOCC3)ccc2n1CC (stereo unspecified) ?
// result N

// query Status in this test for CC(C)(C)N1[C@@H](CC(=O)O)c2cc(C(F)(F)F)ccc2S1(=O)=O ?
// result N

// query Status in this test for O=c1c2oc3nc4c(cc3c2ncn1CCCc1ccccc1)CCCC4 ?
// result N

// query Status in this test for CC(Sc1nc(N)cc(=O)[nH]1)C(=O)NCC(=O)Nc1ccc(F)c(F)c1F (stereo unspecified) ?
// result N

// query Status in this test for Cc1ccccc1C(C(=O)NC1CCCCC1)N(C(=O)c1ccccn1)c1cccnc1 (stereo unspecified) ?
// result N
